Numbers sourced from ChEMBL document CHEMBL3885861.

- Species on record: Rattus norvegicus
- assay name: Open TG-GATES - Regimen: Single
- Type: toxicity, organism-based, Sprague-Dawley
- Design: regimen Single, gender Male, age 6 weeks
- test context: in vivo, po, 100 mg/kg, 24 h, tissue Blood, route gavage, dose level Low
// reported Lym for each item listed
recorded metric: Lym (%)

1) CCOC(=O)CCC(=O)O[C@H]1[C@H](O[C@@H]2[C@@H](C)[C@H](O[C@H]3C[C@@](C)(OC)[C@@H](O)[C@H](C)O3)[C@@H](C)C(=O)O[C@H](CC)[C@@](C)(O)[C@H](O)[C@@H](C)C(=O)[C@H](C)C[C@@]2(C)O)O[C@H](C)C[C@@H]1N(C)C [ERYTHROMYCIN ETHYLSUCCINATE] = 86.4
2) COc1ccc2[nH]c([S+]([O-])Cc3ncc(C)c(OC)c3C)nc2c1 (centres undefined) = 84.4
3) NC(N)=Nc1nc(CSCCC(N)=NS(N)(=O)=O)cs1 = 78.2
4) COC1=CC(=O)C[C@@H](C)[C@]12Oc1c(Cl)c(OC)cc(OC)c1C2=O = 77.6

====

- Species: Rattus norvegicus
- assay name: Open TG-GATES - Regimen: Daily Repeat
- Assay type: toxicity, organism-based, Sprague-Dawley
- Parameters: regimen Daily Repeat, gender Male, age 6 weeks
- test context: in vivo, po, 100 mg/kg, […], route gavage, dose level Low, time 28 day
recorded metric: TERMINAL_BW

1) NC(N)=Nc1nc(CSCCC(N)=NS(N)(=O)=O)cs1 [FAMOTIDINE] = 389.2 g
2) COC1=CC(=O)C[C@@H](C)[C@]12Oc1c(Cl)c(OC)cc(OC)c1C2=O [GRISEOFULVIN] = 393.4 g
3) COc1ccc2[nH]c([S+]([O-])Cc3ncc(C)c(OC)c3C)nc2c1 (stereo not given) [OMEPRAZOLE] = 390.5 g
4) CCOC(=O)CCC(=O)O[C@H]1[C@H](O[C@@H]2[C@@H](C)[C@H](O[C@H]3C[C@@](C)(OC)[C@@H](O)[C@H](C)O3)[C@@H](C)C(=O)O[C@H](CC)[C@@](C)(O)[C@H](O)[C@@H](C)C(=O)[C@H](C)C[C@@]2(C)O)O[C@H](C)C[C@@H]1N(C)C [ERYTHROMYCIN ETHYLSUCCINATE] = 401.9 g
5) CCOc1ccc(NC(=O)CC(C)O)cc1 (stereo not given) [BUCETIN] = 405.9 g

====

- Species on record: Rattus norvegicus
- assay name: Open TG-GATES - Regimen: Single
- Type: toxicity, organism-based, Sprague-Dawley
- Parameters: regimen Single, gender Male, age 6 weeks
- test context: in vivo, po, 300 mg/kg, 9 h, tissue Kidney, route gavage, dose level Middle
// reported KIDNEY_R for each item listed
recorded metric: KIDNEY_R (g)

1) NC(N)=Nc1nc(CSCCC(N)=NS(N)(=O)=O)cs1 = 1
2) COC1=CC(=O)C[C@@H](C)[C@]12Oc1c(Cl)c(OC)cc(OC)c1C2=O = 1
3) COc1ccc2[nH]c([S+]([O-])Cc3ncc(C)c(OC)c3C)nc2c1 (centres undefined) = 0.9
4) CCOC(=O)CCC(=O)O[C@H]1[C@H](O[C@@H]2[C@@H](C)[C@H](O[C@H]3C[C@@](C)(OC)[C@@H](O)[C@H](C)O3)[C@@H](C)C(=O)O[C@H](CC)[C@@](C)(O)[C@H](O)[C@@H](C)C(=O)[C@H](C)C[C@@]2(C)O)O[C@H](C)C[C@@H]1N(C)C [ERYTHROMYCIN ETHYLSUCCINATE] = 1

====

// reported TC for each item listed
- Organism: Rattus norvegicus
- assay name: Open TG-GATES - Regimen: Single
- Type: toxicity, organism-based, Sprague-Dawley
- Parameters: regimen Single, gender Male, age 6 weeks
- test context: in vivo, po, 0 mg/kg, 3 h, tissue Plasma, route gavage, dose level Control
recorded metric: TC (mg/dL)

1) Cc1ccc(C)c(OCCCC(C)(C)C(=O)O)c1 = 86.4
2) COc1ccc2[nH]c([S+]([O-])Cc3ncc(C)c(OC)c3C)nc2c1 (centres undefined) = 69.4
3) CC1=C(/C=C/C(C)=C/C=C/C(C)=C/CO)C(C)(C)CCC1 = 77
4) C[C@@H]1C[C@H]2[C@@H]3CCC4=CC(=O)C=C[C@]4(C)[C@@]3(F)[C@@H](O)C[C@]2(C)[C@@]1(O)C(=O)CO = 79

====

- Species on record: Rattus norvegicus
- assay name: Open TG-GATES - Regimen: Daily Repeat
- Assay type: toxicity, organism-based, Sprague-Dawley
- Design: regimen Daily Repeat, gender Male, age 6 weeks
- test context: in vivo, po, 0 mg/kg, […], tissue Plasma, route gavage, dose level Control, time 7 day
recorded metric: TBIL (mg/dL)

1. CC(C)OC(=O)C(C)(C)Oc1ccc(C(=O)c2ccc(Cl)cc2)cc1 [FENOFIBRATE] = 0.036
2. NC(N)=Nc1nc(CSCCC(N)=NS(N)(=O)=O)cs1 [FAMOTIDINE] = 0.2
3. COC1=CC(=O)C[C@@H](C)[C@]12Oc1c(Cl)c(OC)cc(OC)c1C2=O [GRISEOFULVIN] = 0.2
4. CCOC(=O)CCC(=O)O[C@H]1[C@H](O[C@@H]2[C@@H](C)[C@H](O[C@H]3C[C@@](C)(OC)[C@@H](O)[C@H](C)O3)[C@@H](C)C(=O)O[C@H](CC)[C@@](C)(O)[C@H](O)[C@@H](C)C(=O)[C@H](C)C[C@@]2(C)O)O[C@H](C)C[C@@H]1N(C)C [ERYTHROMYCIN ETHYLSUCCINATE] = 0
5. COc1ccc2[nH]c([S+]([O-])Cc3ncc(C)c(OC)c3C)nc2c1 (stereo not drawn) [OMEPRAZOLE] = 0.1
6. CCCNC(=O)NS(=O)(=O)c1ccc(Cl)cc1 [CHLORPROPAMIDE] = 0.036
7. O=C(CCCN1CCC(O)(c2ccc(Cl)cc2)CC1)c1ccc(F)cc1 [HALOPERIDOL] = 0.3
8. CN(C)CCCN1c2ccccc2CCc2ccccc21 [IMIPRAMINE] = 0.056
9. CN1C(=O)CN=C(c2ccccc2)c2cc(Cl)ccc21 [DIAZEPAM] = 0.3
10. CN(C)CCN(Cc1cccs1)c1ccccn1 = 0.01
11. NNC(=O)c1ccncc1 [ISONIAZID] = 0.3
12. CCOc1ccc(NC(=O)CC(C)O)cc1 (stereo not drawn) [BUCETIN] = 0.038
13. CC1=C(/C=C/C(C)=C/C=C/C(C)=C/CO)C(C)(C)CCC1 [RETINOL] = 0.002

====

- Species on record: Rattus norvegicus
- assay name: Open TG-GATES - Regimen: Daily Repeat
- Type: toxicity, organism-based, Sprague-Dawley
- Set-up: regimen Daily Repeat, gender Male, age 6 weeks
- test context: in vivo, po, 300 mg/kg, […], tissue Plasma, route gavage, dose level Middle, time 7 day
Decision: IP compared against 8 mg/dL; not below it gives 1.0, below it gives 0.0.

1) CCOC(=O)CCC(=O)O[C@H]1[C@H](O[C@@H]2[C@@H](C)[C@H](O[C@H]3C[C@@](C)(OC)[C@@H](O)[C@H](C)O3)[C@@H](C)C(=O)O[C@H](CC)[C@@](C)(O)[C@H](O)[C@@H](C)C(=O)[C@H](C)C[C@@]2(C)O)O[C@H](C)C[C@@H]1N(C)C [ERYTHROMYCIN ETHYLSUCCINATE] = 0.0
2) COC1=CC(=O)C[C@@H](C)[C@]12Oc1c(Cl)c(OC)cc(OC)c1C2=O = 0.0
3) NC(N)=Nc1nc(CSCCC(N)=NS(N)(=O)=O)cs1 = 0.0
4) COc1ccc2[nH]c([S+]([O-])Cc3ncc(C)c(OC)c3C)nc2c1 (stereo not given) = 1.0
5) CCOc1ccc(NC(=O)CC(C)O)cc1 (stereo not given) = 0.0

====

- Species on record: Rattus norvegicus
- assay name: Open TG-GATES - Regimen: Daily Repeat
- Format: toxicity, organism-based, Sprague-Dawley
- Set-up: regimen Daily Repeat, gender Male, age 6 weeks
- test context: in vivo, po, 300 mg/kg, […], tissue Plasma, route gavage, dose level Middle, time 28 day
recorded metric: IP (mg/dL)

1. COC1=CC(=O)C[C@@H](C)[C@]12Oc1c(Cl)c(OC)cc(OC)c1C2=O [GRISEOFULVIN] = 7.3
2. CCOC(=O)CCC(=O)O[C@H]1[C@H](O[C@@H]2[C@@H](C)[C@H](O[C@H]3C[C@@](C)(OC)[C@@H](O)[C@H](C)O3)[C@@H](C)C(=O)O[C@H](CC)[C@@](C)(O)[C@H](O)[C@@H](C)C(=O)[C@H](C)C[C@@]2(C)O)O[C@H](C)C[C@@H]1N(C)C [ERYTHROMYCIN ETHYLSUCCINATE] = 6.9
3. COc1ccc2[nH]c([S+]([O-])Cc3ncc(C)c(OC)c3C)nc2c1 (stereo not given) [OMEPRAZOLE] = 7.3
4. NC(N)=Nc1nc(CSCCC(N)=NS(N)(=O)=O)cs1 [FAMOTIDINE] = 7
5. CCOc1ccc(NC(=O)CC(C)O)cc1 (stereo not given) [BUCETIN] = 6.3
